Hello, the source for this data is patent US20210388087A1, in case you need it.

Target: Human CD137 ECD (human)
Sequence (chain, as listed by the source limits assumed): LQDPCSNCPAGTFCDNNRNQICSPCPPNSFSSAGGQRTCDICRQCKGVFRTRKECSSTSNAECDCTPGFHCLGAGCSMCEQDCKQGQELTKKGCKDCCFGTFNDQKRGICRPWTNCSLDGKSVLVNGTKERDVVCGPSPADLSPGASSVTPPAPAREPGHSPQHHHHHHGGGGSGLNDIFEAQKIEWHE
Test: SPR, vs parent H183/L072
measurementLabel: fold change of affinity (fold)
Express the result in fold but write the number alone.

Input line: Fill in: fold change of affinity of dBBDu183H A100W / dBBDu072L (antibody, name in Kabat numbering, V domains shown) VH: QVQLVESGGGLVQPGRSLRLSCAASGFTFSNAWMHWVRQAPGKGLEWVAQIKDKGNAYAAYYAPSVKGRFTISRDDSKNSIYLQMNSLKTEDTAVYYCHYVHYASWSTVLPAFGVDAWGQGTTVTVSS VL: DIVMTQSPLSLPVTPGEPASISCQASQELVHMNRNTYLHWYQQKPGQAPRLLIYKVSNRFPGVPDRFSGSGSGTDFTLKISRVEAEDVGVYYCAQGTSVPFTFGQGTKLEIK is ___
Output line: 0

Input line: Now consider dBBDu183H A98Y / dBBDu072L (antibody, name in Kabat numbering, V domains shown) VH: QVQLVESGGGLVQPGRSLRLSCAASGFTFSNAWMHWVRQAPGKGLEWVAQIKDKGNAYAAYYAPSVKGRFTISRDDSKNSIYLQMNSLKTEDTAVYYCHYVHYYSASTVLPAFGVDAWGQGTTVTVSS VL: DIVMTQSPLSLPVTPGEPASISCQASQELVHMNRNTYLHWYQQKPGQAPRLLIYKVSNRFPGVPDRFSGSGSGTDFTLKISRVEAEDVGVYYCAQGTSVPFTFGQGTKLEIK .
Output line: 0

Input line: // query: dBBDu183H A100S / dBBDu072L (antibody, name in Kabat numbering, V domains shown) VH: QVQLVESGGGLVQPGRSLRLSCAASGFTFSNAWMHWVRQAPGKGLEWVAQIKDKGNAYAAYYAPSVKGRFTISRDDSKNSIYLQMNSLKTEDTAVYYCHYVHYASSSTVLPAFGVDAWGQGTTVTVSS VL: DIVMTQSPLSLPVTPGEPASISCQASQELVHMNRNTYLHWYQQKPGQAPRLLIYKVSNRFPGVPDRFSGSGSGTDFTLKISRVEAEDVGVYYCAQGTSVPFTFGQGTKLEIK
Output line: 0

Input line: Quick one: dBBDu183H G100hD / dBBDu072L (antibody, name in Kabat numbering, V domains shown) VH: QVQLVESGGGLVQPGRSLRLSCAASGFTFSNAWMHWVRQAPGKGLEWVAQIKDKGNAYAAYYAPSVKGRFTISRDDSKNSIYLQMNSLKTEDTAVYYCHYVHYASASTVLPAFDVDAWGQGTTVTVSS VL: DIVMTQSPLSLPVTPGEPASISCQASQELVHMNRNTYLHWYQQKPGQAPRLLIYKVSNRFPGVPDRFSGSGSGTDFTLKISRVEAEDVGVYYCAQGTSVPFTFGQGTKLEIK
Output line: 0

Input line: Now this one: dBBDu183H H96Q / dBBDu072L (antibody, name in Kabat numbering, V domains shown) VH: QVQLVESGGGLVQPGRSLRLSCAASGFTFSNAWMHWVRQAPGKGLEWVAQIKDKGNAYAAYYAPSVKGRFTISRDDSKNSIYLQMNSLKTEDTAVYYCHYVQYASASTVLPAFGVDAWGQGTTVTVSS VL: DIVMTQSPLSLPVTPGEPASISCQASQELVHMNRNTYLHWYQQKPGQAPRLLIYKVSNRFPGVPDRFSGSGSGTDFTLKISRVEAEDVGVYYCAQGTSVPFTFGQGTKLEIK
Output line: 0
